Assay: Inhibition of Escherichia coli DHFR
QUANTITY NAME: pKi
Give only the number. pKi is defined as minus log10 of concentration in molar units.

Need pKi of `Nc1ccnc(N)n1` , thanks.
2.74

###

Experiment: Inhibition of Lactobacillus casei DHFR
Design: species or system Lacticaseibacillus casei
QUANTITY NAME: Ki
Output should be the measured figure followed by the unit it is expressed in.

Need Ki of Nc1ccnc(N)n1 [DIAMINOPYRIMIDINE] , thanks.
1.8 mM
